Origin of the recorded values: ChEMBL document CHEMBL1135128

- target system: Sulfonylurea receptors; K-ATP channels
- experiment notes: Potassium channel opening activity determined in cultured guinea pig urinary bladder cells
- Format: functional, cell-based, Cavia porcellus
pEC50: −log10 of the molar value.
# maps each entry to its pEC50
measured quantity: pEC50

>>> recorded_number("OC1=C2C(=Nc3ccnn3C2c2ccc(F)c(Cl)c2)CCC1 (stereo not given)")
6.59
>>> recorded_number("O=S1(=O)CCCC2Nc3ccnn3C(c3ccc(F)c(Br)c3)C21 (stereo not given)")
6.04
>>> recorded_number("OC1=C2C(=Nc3ccnn3C2c2ccc(Cl)c(Cl)c2)CCC1 (stereo not given)")
6.89
>>> recorded_number("OC1=C2C(=Nc3ccnn3C2c2cccc(Br)c2)CCC1 (stereo not given)")
6.26
>>> recorded_number("OC1=C2C(=Nc3c(-c4cccc(F)c4)cnn3C2c2ccc(Cl)c(Cl)c2)CCC1 (stereo not given)")
5.49
>>> recorded_number("CC1(C)CCC2Nc3ccnn3C(c3ccc(F)c(Br)c3)C2C1=O (stereo not given)")
7.46
>>> recorded_number("OC1=C2C(=Nc3ccnn3C2c2cccc(Cl)c2)CCC1 (stereo not given)")
5.96
>>> recorded_number("CC(C)(C)c1cc2n(n1)C(c1ccc(F)c(Br)c1)C1=C(O)CCCC1=N2 (stereo not given)")
4.92
>>> recorded_number("O=C1CSCC2Nc3ccnn3C(c3ccc(F)c(Br)c3)C12 (stereo not given)")
7.40
>>> recorded_number("OC1=C2C(=Nc3ccnn3C2c2ccc(F)c(Br)c2)CCC1 (stereo not given)")
7.52
>>> recorded_number("OC1=C2C(=Nc3c(-c4ccco4)cnn3C2c2ccc(Cl)c(Cl)c2)CCC1 (stereo not given)")
4.92
>>> recorded_number("O=[N+]([O-])c1cc(C2C3=C(O)CCCC3=Nc3ccnn32)ccc1Cl (stereo not given)")
6.51
>>> recorded_number("OC1=C2C(=Nc3ccnn3C2c2cccc(OC(F)(F)F)c2)CCC1 (stereo not given)")
5.77
>>> recorded_number("N#Cc1cccc(C2C3=C(CCCC3=O)NC3=C2C(=O)CCC3)c1")
5.42
>>> recorded_number("OC1=C2C(=Nc3ccnn3C2c2ccc(F)c(C(F)(F)F)c2)CCC1 (stereo not given)")
6.54
>>> recorded_number("OC1=C2C(=Nc3ccnn3C2c2ccc(F)cc2)CCC1 (stereo not given)")
5.11
>>> recorded_number("N#Cc1cccc(C2C3=C(O)CCCC3=Nc3ccnn32)c1 (stereo not given)")
5.54
>>> recorded_number("CC1(C)CC(=O)C2C(C1)Nc1ccnn1C2c1ccc(F)c(Br)c1 (stereo not given)")
5.01
>>> recorded_number("OC1=C2C(=Nc3ccnn3C2c2ccc(Br)c(F)c2)CCC1 (stereo not given)")
7.52
>>> recorded_number("OC1=C2C(=Nc3ccnn3C2c2ccc(Cl)c(C(F)(F)F)c2)CCC1 (stereo not given)")
6.73
>>> recorded_number("OC1=C2C(=Nc3c(Br)cnn3C2c2ccc(F)c(Br)c2)CCC1 (stereo not given)")
6.40
